Hey, just so you know, these numbers are from the supplement of paper PMC11061612.

system: EFM-192A (Breast Carcinoma); test: combination Emax (second highest fraction inhibited in the dose matrix, 72 h); higher = more inhibition; extreme values may be limits of the assay
MEASURE: combination Emax
Lab note: record the figure alone, no unit after it.

Consider the worked cases shown below.
MOLECULE	combination Emax
CC(=O)Nc1cccc(-n2c(=O)n(C3CC3)c(=O)c3c(Nc4ccc(I)cc4F)n(C)c(=O)c(C)c32)c1 [Trametinib] + Cc1nc(-c2cn3c(n2)-c2ccc(-c4cnn(C(C)(C)C(N)=O)c4)cc2OCC3)n(C(C)C)n1 [Taselisib] (first compound max 1 µM, 7x7, partner max 10 µM)	0.72
CN(CCO)CC[C@H](CSc1ccccc1)Nc1ccc(S(=O)(=O)NC(=O)c2ccc(N3CCC([C@@H](O)c4ccccc4-c4ccc(Cl)cc4)CC3)cc2)cc1S(=O)(=O)C(F)(F)F [AZD4320] + C=CCn1c(=O)c2cnc(Nc3ccc(N4CCN(C)CC4)cc3)nc2n1-c1cccc(C(C)(C)O)n1 [AZD1775] (first compound max 1 µM, partner max 1 µM)	0.302
COc1cccc(OCCCN)c1-c1cc(Nc2cnc(C#N)cn2)n[nH]1 [Prexasertib] + O=C(c1cc(Cc2n[nH]c(=O)c3ccccc23)ccc1F)N1CCN(C(=O)C2CC2)CC1 [Olaparib] (first compound max 1 µM, 7x7, partner max 10 µM)	0.143
CS(=O)(=O)CCNCc1ccc(-c2ccc3ncnc(Nc4ccc(OCc5cccc(F)c5)c(Cl)c4)c3c2)o1 [Lapatinib] + C[C@@H](Oc1cc(-c2cnn(C3CCNCC3)c2)cnc1N)c1c(Cl)ccc(F)c1Cl [Crizotinib] (first compound max 10 µM, 7x7, partner max 10 µM)	0.878
CN(C)CCCOc1ccc(-c2ccc3ncc4c(c3c2)n(C2CCOCC2)c(=O)n4C)cn1 [AZD0156] + O=C(c1cc(Cc2n[nH]c(=O)c3ccccc23)ccc1F)N1CCN(C(=O)C2CC2)CC1 [Olaparib] (first compound max 3 µM, partner max 3 µM)	0.248
NC1(C(=O)N[C@@H](CCO)c2ccc(Cl)cc2)CCN(c2ncnc3[nH]ccc23)CC1 [Capivasertib] + C[C@@H]1COCCN1C2=NC(=NC(=C2)C3(CC3)[S@](=N)(=O)C)C4=C5C=CNC5=NC=C4 [AZD6738] (first compound max 10 µM, 7x7, partner max 10 µM)	0.581
CC(=O)c1c(C)c2cnc(Nc3ccc(N4CCNCC4)cn3)nc2n(C2CCCC2)c1=O [Palbociclib] + Cc1c2c(nn1C)CSCc1cc(n(C)n1)CSc1cc(c3ccccc3c1)OCCCc1c(C(=O)O)n(C)c3c-2c(Cl)ccc13 [AZD5991] (first compound max 10 µM, 7x7, partner max 1 µM)	0.436

Request: GET /values?readout=combination Emax&item= NC1(C(=O)N[C@@H](CCO)c2ccc(Cl)cc2)CCN(c2ncnc3[nH]ccc23)CC1 [Capivasertib] + CCN(CCO)CCCOc1ccc2c(Nc3cc(CC(=O)Nc4cccc(F)c4)[nH]n3)ncnc2c1 [AZD2811] (first compound max 10 µM, 7x7, partner max 1 µM)
Result: 0.449
